Origin of values: patent US20110223168A1

experimental_system: T1, human TNFα (human, UniProt P01375 77-233)
T1 construct: Coated on plates, coupled to a CM5 chip, or added in solution (10 ng/ml) in the TNF receptor assay; the assay paragraphs often print only 'TNF'; also called TNF alpha; TAR1
T1 sequence (P01375 77-233 limits assumed): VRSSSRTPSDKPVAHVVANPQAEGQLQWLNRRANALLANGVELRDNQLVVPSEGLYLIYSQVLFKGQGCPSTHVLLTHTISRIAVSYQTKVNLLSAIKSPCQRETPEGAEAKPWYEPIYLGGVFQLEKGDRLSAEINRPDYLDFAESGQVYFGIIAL
assay_remarks: TNF receptor assay: inhibition of TNF binding to TNFR1-Fc (ELISA)
pIC50: −log10 of the molar value.
Below is a list of entries, each paired with its recorded pIC50 value.

Known results for binders:
binder	pIC50
TAR1-5-19 cys hinge dimer (other, hinge cysteines form the cystine bond(s) between the two chains, Dimerises in the periplasm; FPLC purified dimer fraction tested; also called cysteine hinge linker format) DIQMTQSPSSLSASVGDRVTITCRASQSIDSYLHWYQQKPGKAPKLLIYSASELQSGVPSRFSGSGSGTDFTLTISSLQPEDFATYYCQQVVWRPFTFGQGTKVEIKREPKSGDKTHTCPPCP	~8.70
TAR1-5-19 5U homodimer (other, also called TAR1-5-19 homodimer with (Gly4Ser)5 linker) DIQMTQSPSSLSASVGDRVTITCRASQSIDSYLHWYQQKPGKAPKLLIYSASELQSGVPSRFSGSGSGTDFTLTISSLQPEDFATYYCQQVVWRPFTFGQGTKVEIKRGGGGSGGGGSGGGGSGGGGSGGGGSDIQMTQSPSSLSASVGDRVTITCRASQSIDSYLHWYQQKPGKAPKLLIYSASELQSGVPSRFSGSGSGTDFTLTISSLQPEDFATYYCQQVVWRPFTFGQGTKVEIKR	~8.70
TAR1-5-19 7U homodimer (other, also called TAR1-5-19 homodimer with (Gly4Ser)7 linker) DIQMTQSPSSLSASVGDRVTITCRASQSIDSYLHWYQQKPGKAPKLLIYSASELQSGVPSRFSGSGSGTDFTLTISSLQPEDFATYYCQQVVWRPFTFGQGTKVEIKRGGGGSGGGGSGGGGSGGGGSGGGGSGGGGSGGGGSDIQMTQSPSSLSASVGDRVTITCRASQSIDSYLHWYQQKPGKAPKLLIYSASELQSGVPSRFSGSGSGTDFTLTISSLQPEDFATYYCQQVVWRPFTFGQGTKVEIKR	~8.00

Now for another entry.
Would you kindly share the measured pIC50 for TAR1-5-19 3U homodimer (other, also called TAR1-5-19 homodimer with (Gly4Ser)3 linker) DIQMTQSPSSLSASVGDRVTITCRASQSIDSYLHWYQQKPGKAPKLLIYSASELQSGVPSRFSGSGSGTDFTLTISSLQPEDFATYYCQQVVWRPFTFGQGTKVEIKRGGGGSGGGGSGGGGSDIQMTQSPSSLSASVGDRVTITCRASQSIDSYLHWYQQKPGKAPKLLIYSASELQSGVPSRFSGSGSGTDFTLTISSLQPEDFATYYCQQVVWRPFTFGQGTKVEIKR ?
~7.70
